# TARGET OR SYSTEM: recombinant DDB1-CRBN (Homo sapiens, UniProt Q96SW2)
# Construct: His; made in house; host or cells: High Five insect cells (baculovirus made and propagated in SF9 cells)
# TEST METHOD NOTES: Fluorescence polarization-based competition assay for CRBN binding
# MEASUREMENT CONDITIONS: 200 nM CRBN-DDB1, 20 nM pomalidomide-fluorescein tracer 16, triplicates; read-out: FP_CRBN_binding: CRBN binding affinity, EC50
PARAMETER MEASURED: EC50 (nM)
Output spec: scalar in nM, unitless text.

EC50 for CC1c2cc(F)ccc2CCN1S(=O)(=O)Oc1cccc(C2CCC(=O)NC2=O)c1 (stereo not shown) [FL6-17] is 803

EC50 for CC(C)(O)C1CCN(S(=O)(=O)Oc2ccc(Nc3ccc4c(c3)C(=O)N(C3CCC(=O)NC3=O)C4=O)cc2)C1 (stereo not shown) [FL2-4] is 770

EC50 for O=C1CCC(N2C(=O)c3ccc(Nc4cccc(OS(=O)(=O)N5CC6(CNC(=O)N6)C5)c4)cc3C2=O)C(=O)N1 (stereo not shown) [FL1-9] is 435

EC50 for C[C@@H](O)CN(C)S(=O)(=O)Oc1cccc(C2CCC(=O)NC2=O)c1 (stereo partly shown) [FL6-1] is 584

From: paper PMC10764104
